In this section, each of the binders is paired with its reported Kd.
molecular target: T1, human IL-8 (human, UniProt P10145 23-99, limits assumed); test: SPR Biacore T200, Protein A/G capture, pH 5.8, 37C;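 note: antibodies captured by Protein A/G amine-coupled onto a CM4 sensor chip, with kinetic parameters derived using Biacore T200 Evaluation Software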
T1 construct: also called hIL-8; hIL8
T1 sequence (P10145 23-99 limits assumed): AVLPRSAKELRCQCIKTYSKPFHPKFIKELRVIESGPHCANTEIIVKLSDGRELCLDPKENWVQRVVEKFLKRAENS
Write the answer as a number in nM, unit excluded.

Previously resolved entries follow.
// query # input binder: H1022/L0395 (antibody, human IgG1, kappa, name in Kabat numbering, V domains shown) VH: QVQLVESGGGLVQPGGSLRLSCAASGFTFSDYYLSWVRQAPGKGLEWVGLIRNKDNHHHPEYSASVKGRFTISRDDSKNSLYLTMSDLKTEDTAVYYCARENHRYDVELAYWGQGTLVTVSS VL: DIQMTQSPSSLSASVGDRVTITCRASEIIYSYLAWYQQKPGKAPKLLIYKAKTHADGVPSRFSGSGSGTDFTFTISSLQPEDIATYYCKHHFGFPRTFGQGTKVEIKR ; wanted: its Kd
// result 290

// query Which Kd reading was recorded for the binder H1037/L0442 (antibody, human IgG1, kappa, name in Kabat numbering, V domains shown, L442 = L395 + S31E) VH: QVQLVESGGGLVQPGGSLRLSCAASGFTFDKYYLSWVRQAPGKGLEWVGLIRNKDNYHHPEYSASVKGRFTISRDDSKNSLYLTMSDLKTEDTAVYYCARENHRYDVELAYWGQGTLVTVSS VL: DIQMTQSPSSLSASVGDRVTITCRASEIIYEYLAWYQQKPGKAPKLLIYKAKTHADGVPSRFSGSGSGTDFTFTISSLQPEDIATYYCKHHFGFPRTFGQGTKVEIKR ?
// result 61

Turning now to a further record.
// query For the binder H1047/L0395 (antibody, human IgG1, kappa, name in Kabat numbering, V domains shown) VH: QVQLVESGGGLVQPGGSLRLSCAASGFTFDKYYLSWVRQAPGKGLEWVGLIRNKDNGYTPEYSASVKGRFTISRDDSKNSLYLTMSDLKTEDTAVYYCARENHRYDVELAYWGQGTLVTVSS VL: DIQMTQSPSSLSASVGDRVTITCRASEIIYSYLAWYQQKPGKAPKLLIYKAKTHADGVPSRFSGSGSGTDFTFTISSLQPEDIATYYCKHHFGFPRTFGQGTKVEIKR , what Kd is on record?
// result 47
